TARGET SYSTEM: T1, human interleukin 1 receptor accessory protein, membrane-bound form on cells (human, UniProt Q9NPH3 21-570)
T1 sequence: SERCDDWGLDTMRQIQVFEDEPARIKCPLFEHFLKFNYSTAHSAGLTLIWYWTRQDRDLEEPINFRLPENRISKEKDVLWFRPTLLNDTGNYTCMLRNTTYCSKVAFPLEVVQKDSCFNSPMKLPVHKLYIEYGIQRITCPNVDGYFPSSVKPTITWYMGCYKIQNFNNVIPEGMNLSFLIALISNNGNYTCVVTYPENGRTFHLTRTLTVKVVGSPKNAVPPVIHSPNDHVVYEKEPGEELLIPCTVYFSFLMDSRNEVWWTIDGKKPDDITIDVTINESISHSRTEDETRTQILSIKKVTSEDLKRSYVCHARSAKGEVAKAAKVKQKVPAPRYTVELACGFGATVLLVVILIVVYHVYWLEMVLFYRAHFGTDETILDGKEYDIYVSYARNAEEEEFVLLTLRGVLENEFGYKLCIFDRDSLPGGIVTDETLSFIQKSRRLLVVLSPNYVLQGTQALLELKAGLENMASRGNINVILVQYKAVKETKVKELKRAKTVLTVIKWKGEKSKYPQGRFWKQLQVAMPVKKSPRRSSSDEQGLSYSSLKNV
MEASUREMENT NOTES: cell-based or functional assay
OBSERVATION TYPE: IC50 of inhibition of IL-1β-induced NF-κB signaling, HEK-Blue IL-1β cells (µg/mL)
Give bare numbers, in µg/mL.

// below: answered binders
anti-IL1-RAP antibody clone 54.8H8 (antibody, V domains shown, Mouse monoclonal antibody) VH: EVQLVESGGGLVKPGGSLKLSCAASGFSFSSYGMSWVRQSPEKRLEWVAEITSGGSHTYYPDTVTGRFTISRDNAKNTLYLEMSSLRSEDTAMYYCSRSYGNYVMDYWGQGTSVTVSS VL: QIVLTQSPAIMSASPGEKVTMTCSASSSVIYIYWFQQKPGSSPRLLIYDTSNLASGVPLRFSGSGSGTSYSLTISRMETEDVSTYYCQQWNSYPPTFGGGTKLEIK ... 2.05
anti-IL1-RAP antibody clone 54.9D7 (antibody, V domains shown, Mouse monoclonal antibody from a hybridoma) VH: HVQLQQSGPELVRPGASVKLSCKASGYIFITYWMNWVKQRPGQGLEWVGQIFPASGTTYYNELFEGKATLTVDTSSNTAYMHLTSLTSEDSAVYYCARTDFYRYDGGYALDYWGQGTSLTVSS VL: DIVLTQSPISLAVFLGQRATISCRASQSVSTSGYSSMHWYQQKAGQPPKLLIKYASDLESGVPVRFSGSGSGTDFILNIHPVEVEDIATYYCHHSWGIPMYTFGGGTKLEIKR ... 0.03

IC50 of inhibition of IL-1β-induced NF-κB signaling, HEK-Blue IL-1β cells reading for anti-IL1-RAP antibody clone 50.6C12 (antibody, V domains shown, Mouse monoclonal antibody) VH: EVQLQQSGPELVKPGDSVKMSCKASGYTFTDYYMDWVKQSHGKSLEWIGYIYPHNGGTTYNQKFKGKATLTVDKSSSTAYMELHSLTSEDSAVYYCARSPFNYKDPMDWWGQGTSVTVSS VL: DIQMTQSPASLSASVGETVTITCRASGNIHNYLAWYQQKQGKSPHLLVYNAETLADGVPSRFSGSGSGTQYSLKINSLQPEDFGTYYCQHFWSTPWTFGGGTKLEIK : 0.41
